tested on: mouse plasma stability, percent remaining; assay: second set, compound stability in murine plasma, biochemical ADME (AID 624419); settings: at 1 µM
Recorded plasma stability for the following molecules
Entry rule: numbers only, all in %.

                                   molecule                              targetsystem  unitspec  readoutvalue
0  COc1ccc(Sc2ccc(NC(=O)c3ccccc3Cl)cc2C#N)cc1  mouse plasma stability, percent remaining         %          91.6

Entry Cc1cc(-c2nnc3n2CCCCC3)c(C)n1-c1ccccc1 : reported plasma stability = ?
91.3

Here is the next molecule: Cc1cc(C(=O)CN2C(=O)CCC2=O)c(C)n1Cc1ccccc1
98

Here is the next molecule: c1ccc2c(Nc3nnc(-c4ccncc4)s3)cccc2c1
96.4

Here is the next molecule: Cc1ccc(C(=O)n2c3ccccc3c3ccccc32)cc1
100

Here is the next molecule: CC[C@H]1CN2CCc3cc(OC)c(OC)cc3[C@@H]2C[C@@H]1C[C@H]1NCCc2cc(OC)c(OC)cc21
100

Here is the next molecule: COC(=O)c1ccccc1NC(=O)c1ccc(F)cc1
17
